# target under test: Vasopressin V2 receptor (Rattus norvegicus)
# Sequence (Q00788 whole entry): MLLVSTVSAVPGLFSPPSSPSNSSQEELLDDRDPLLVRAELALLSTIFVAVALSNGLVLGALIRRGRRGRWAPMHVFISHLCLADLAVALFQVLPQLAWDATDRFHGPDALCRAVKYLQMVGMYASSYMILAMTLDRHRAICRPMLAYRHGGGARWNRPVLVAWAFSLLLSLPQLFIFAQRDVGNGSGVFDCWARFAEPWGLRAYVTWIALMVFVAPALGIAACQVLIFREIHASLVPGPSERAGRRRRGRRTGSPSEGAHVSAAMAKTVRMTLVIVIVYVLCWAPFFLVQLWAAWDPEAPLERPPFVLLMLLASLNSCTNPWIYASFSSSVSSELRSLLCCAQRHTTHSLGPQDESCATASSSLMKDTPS
# assay protocol: Inhibition of [3H]arginine vasopressin binding to AVP-V2 site in rat kidney medulla.
# Type: tissue-based
Where a SMILES comes first, the peptide text is derived from it. [ ]: non-standard residue; d: D form. d2Nal = N[C@H](Cc1ccc2ccccc2c1)C(=O)O; Pip(4-aza) = O=C(O)[C@@H]1CNCCN1; dNMeF = CN[C@H](Cc1ccccc1)C(=O)O; Pip = O=C(O)[C@@H]1CCCCN1; dPip = O=C(O)[C@H]1CCCCN1; Nle = CCCC[C@H](N)C(=O)O
observable: log10 of IC50 (log10 of the value in µM)
Give log10 of IC50, with IC50 taken in µM.

Example entries begin here.
CC[C@H](C)[C@@H]1NC(=O)[C@@H](Cc2ccccc2)NC(=O)[C@@H]2CCCN2C(=O)[C@@H](Cc2ccccc2)NC(=O)[C@@H]2CCCCN2C(=O)[C@H]2CCCCN2C1=O (cyclo(I[dPip][Pip][dF]P[dF]))
1.04
CCCC[C@@H]1NC(=O)[C@@H](Cc2c[nH]c3ccccc23)NC(=O)[C@@H]2CCCN2C(=O)[C@@H](Cc2c[nH]cn2)NC(=O)[C@@H]2CCCCN2C(=O)[C@H]2CCCCN2C1=O (cyclo([Nle][dPip][Pip][dH]P[dW]))
0.23
CC[C@H](C)[C@@H]1NC(=O)[C@@H](Cc2c[nH]c3ccccc23)NC(=O)[C@@H]2CCCN2C(=O)[C@@H](Cc2c[nH]cn2)NC(=O)[C@@H]2CCCCN2C(=O)[C@H]2CCC=NN2C1=O
0.04

Item: CC[C@H](C)[C@@H]1NC(=O)[C@@H](Cc2ccccc2)NC(=O)[C@@H]2CCCN2C(=O)[C@@H](Cc2ccccc2)N(C)C(=O)[C@H](CCCCN)NC(=O)[C@H]2CCCCN2C1=O | log10 of IC50: 0.15

Item: CC[C@H](C)[C@@H]1NC(=O)[C@@H](Cc2c[nH]c3ccccc23)NC(=O)[C@@H]2CCCN2C(=O)[C@@H](Cc2ccccc2)N(C)C(=O)[C@@H]2CNCCN2C(=O)[C@H]2CCCCN2C1=O (cyclo(I[dPip][Pip(4-aza)][dNMeF]P[dW])) | log10 of IC50: -0.16

Item: CC[C@H](C)[C@@H]1NC(=O)[C@@H](Cc2ccccc2)NC(=O)[C@@H]2CCCN2C(=O)[C@@H](CCCCN)NC(=O)[C@@H]2CCCCN2C(=O)[C@H]2CCCCN2C1=O (cyclo(I[dPip][Pip][dK]P[dF])) | log10 of IC50: 0.87

Item: CC[C@H](C)[C@@H]1NC(=O)[C@@H](Cc2cccc3ccccc23)NC(=O)[C@@H]2CCCN2C(=O)[C@@H](Cc2ccccc2)N(C)C(=O)[C@H](CCCCN)NC(=O)[C@H]2CCCCN2C1=O | log10 of IC50: -0.82

Item: CC[C@H](C)[C@@H]1NC(=O)[C@@H](Cc2ccc3ccccc3c2)NC(=O)[C@@H]2CCCN2C(=O)[C@@H](Cc2ccccc2)N(C)C(=O)[C@H](CCCCN)NC(=O)[C@H]2CCCCN2C1=O (cyclo(I[dPip]K[dNMeF]P[d2Nal])) | log10 of IC50: -0.96

Item: CC[C@H](C)[C@@H]1NC(=O)[C@@H](Cc2c[nH]c3ccccc23)NC(=O)[C@@H]2CCCN2C(=O)[C@@H](Cc2c[nH]cn2)NC(=O)[C@@H]2CCCCN2C(=O)[C@H]2CCCCN2C1=O (cyclo(I[dPip][Pip][dH]P[dW])) | log10 of IC50: 0.72

----------
log10(IC50) values for the compounds below.
# target under test: Vasopressin V1a receptor (Rattus norvegicus)
# Sequence (P30560 whole entry): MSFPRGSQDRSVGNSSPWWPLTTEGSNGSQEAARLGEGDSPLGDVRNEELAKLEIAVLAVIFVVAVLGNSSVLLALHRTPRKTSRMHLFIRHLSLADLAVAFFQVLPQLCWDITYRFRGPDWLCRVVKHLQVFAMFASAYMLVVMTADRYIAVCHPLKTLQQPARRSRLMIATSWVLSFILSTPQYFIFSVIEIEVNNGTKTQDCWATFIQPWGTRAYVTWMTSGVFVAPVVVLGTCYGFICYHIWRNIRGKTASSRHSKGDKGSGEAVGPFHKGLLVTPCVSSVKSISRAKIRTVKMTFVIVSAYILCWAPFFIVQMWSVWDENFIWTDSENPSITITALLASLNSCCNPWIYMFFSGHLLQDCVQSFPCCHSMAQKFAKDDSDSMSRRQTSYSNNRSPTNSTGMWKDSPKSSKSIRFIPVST
# assay protocol: Concentration required to displace 50% of [3H]arginine vasopressin from rat liver arginine vasopressin 1A (AVP-V1a) site.
Where a SMILES comes first, the peptide text is derived from it. [ ]: non-standard residue; d: D form. d2Nal = N[C@H](Cc1ccc2ccccc2c1)C(=O)O; Pip(4-aza) = O=C(O)[C@@H]1CNCCN1; dNMeF = CN[C@H](Cc1ccccc1)C(=O)O; Pip = O=C(O)[C@@H]1CCCCN1; dPip = O=C(O)[C@H]1CCCCN1
Give log10 of IC50, with IC50 taken in nM.

CC[C@H](C)[C@@H]1NC(=O)[C@@H](Cc2c[nH]c3ccccc23)NC(=O)[C@@H]2CCCN2C(=O)[C@@H](Cc2ccccc2)N(C)C(=O)[C@@H]2CNCCN2C(=O)[C@H]2CCCCN2C1=O (cyclo(I[dPip][Pip(4-aza)][dNMeF]P[dW]))
4.51
CC[C@H](C)[C@@H]1NC(=O)[C@@H](Cc2ccccc2)NC(=O)[C@@H]2CCCN2C(=O)[C@@H](Cc2ccccc2)N(C)C(=O)[C@@H]2CCCCN2C(=O)[C@H]2CCCCN2C1=O (cyclo(I[dPip][Pip][dNMeF]P[dF]))
3.51
CC[C@H](C)[C@@H]1NC(=O)[C@@H](Cc2ccccc2)NC(=O)[C@@H]2CCCN2C(=O)[C@@H](Cc2ccccc2)N(C)C(=O)[C@H](CCCN)NC(=O)[C@H]2CCC=NN2C1=O
2.90

Item: CC[C@H](C)[C@@H]1NC(=O)[C@@H](Cc2ccc3ccccc3c2)NC(=O)[C@@H]2CCCN2C(=O)[C@@H](Cc2c[nH]cn2)NC(=O)[C@@H]2CCCCN2C(=O)[C@H]2CCCCN2C1=O (cyclo(I[dPip][Pip][dH]P[d2Nal])) | log10(IC50): 3.41

Item: CC[C@H](C)[C@@H]1NC(=O)[C@@H](Cc2c[nH]c3ccccc23)NC(=O)[C@@H]2CCCN2C(=O)[C@@H](Cc2ccccc2)N(C)C(=O)[C@H](CCCCN)NC(=O)[C@H]2CCCCN2C1=O (cyclo(I[dPip]K[dNMeF]P[dW])) | log10(IC50): 3.20

----------
# target under test: Oxytocin receptor (Rattus norvegicus)
# Sequence (P70536 whole entry): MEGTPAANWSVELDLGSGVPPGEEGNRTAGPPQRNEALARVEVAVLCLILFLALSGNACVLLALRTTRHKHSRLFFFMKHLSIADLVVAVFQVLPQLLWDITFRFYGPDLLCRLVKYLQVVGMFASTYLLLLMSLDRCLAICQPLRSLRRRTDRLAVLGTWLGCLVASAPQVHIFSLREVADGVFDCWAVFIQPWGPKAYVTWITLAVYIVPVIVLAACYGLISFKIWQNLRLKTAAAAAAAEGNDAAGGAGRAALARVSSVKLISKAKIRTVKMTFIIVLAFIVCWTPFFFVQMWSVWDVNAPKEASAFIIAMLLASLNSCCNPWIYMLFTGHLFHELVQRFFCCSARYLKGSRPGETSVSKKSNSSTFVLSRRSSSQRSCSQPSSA
*1 amine or outer side, *2 acyl side, *3 side chain or, on linkers, in order; H or OH if unused. Where a SMILES comes first, the peptide text is derived from it. [ ]: non-standard residue; d: D form. X1 = C=CCN([C@H](Cc1ccccc1)C(=O)[*:2])[*:1]; Piz(1,6-dehydro) = O=C(O)[C@@H]1CCC=NN1; dPiz(1,6-dehydro) = O=C(O)[C@H]1CCC=NN1; d1Nal = N[C@H](Cc1cccc2ccccc12)C(=O)O; d2Nal = N[C@H](Cc1ccc2ccccc2c1)C(=O)O; Pip(4-aza) = O=C(O)[C@@H]1CNCCN1; dNMeF = CN[C@H](Cc1ccccc1)C(=O)O; Pip = O=C(O)[C@@H]1CCCCN1; dPip = O=C(O)[C@H]1CCCCN1; NMeA = CN[C@@H](C)C(=O)O; dNMeA = CN[C@H](C)C(=O)O
IC50 strictly under 200 nM means 1.0; at 200 nM or over means 0.0.

CC[C@H](C)[C@@H]1NC(=O)[C@@H](Cc2ccccc2)NC(=O)[C@@H]2CCCN2C(=O)[C@@H](CCCCN)NC(=O)[C@@H]2CCCCN2C(=O)[C@H]2CCCCN2C1=O (cyclo(I[dPip][Pip][dK]P[dF]))
0.0
CC[C@H](C)[C@@H]1NC(=O)[C@@H](Cc2ccccc2)NC(=O)[C@@H]2CCCN2C(=O)[C@@H](Cc2ccccc2)N(C)C(=O)[C@@H]2CCCCN2C(=O)[C@H]2CCC=NN2C1=O (cyclo(I[dPiz(1,6-dehydro)][Pip][dNMeF]P[dF]))
1.0
CC[C@H](C)[C@@H]1NC(=O)[C@@H](Cc2ccccc2)NC(=O)[C@@H]2CCCN2C(=O)[C@@H](Cc2ccccc2)N(C)C(=O)[C@@H]2CCCCN2C(=O)[C@H]2CCCN2C1=O (cyclo(I[dP][Pip][dNMeF]P[dF]))
0.0
CC[C@H](C)[C@@H]1NC(=O)[C@@H](Cc2ccccc2)NC(=O)[C@@H]2CCCN2C(=O)[C@@H](Cc2ccccc2)N(C)C(=O)[C@@H]2CCC=NN2C(=O)[C@H]2CCC=NN2C1=O (cyclo(I[dPiz(1,6-dehydro)][Piz(1,6-dehydro)][dNMeF]P[dF]))
1.0

Query: Does the reported IC50 of the following molecule sit strictly below 200 nM? C=CCN1C(=O)[C@@H]2CCCCN2C(=O)[C@H]2CCCCN2C(=O)[C@H]([C@@H](C)CC)NC(=O)[C@@H](Cc2ccccc2)NC(=O)[C@@H]2CCCN2C(=O)[C@H]1Cc1ccccc1 (cyclo(I[dPip][Pip][X1]P[dF]))
Result: 1.0

Query: Does the reported IC50 of the following molecule sit strictly below 200 nM? CC[C@H](C)[C@@H]1NC(=O)[C@@H](Cc2cccc3ccccc23)NC(=O)[C@@H]2CCCN2C(=O)[C@@H](Cc2cnc[nH]2)NC(=O)[C@@H]2CCCCN2C(=O)[C@H]2CCCCN2C1=O (cyclo(I[dPip][Pip][dH]P[d1Nal]))
Result: 1.0

Query: Does the reported IC50 of the following molecule sit strictly below 200 nM? CC[C@H](C)[C@@H]1NC(=O)[C@@H](Cc2ccccc2)NC(=O)[C@@H]2CCCN2C(=O)[C@@H](Cc2ccccc2)N(C)C(=O)[C@@H]2CCCCN2C(=O)[C@@H](C)N(C)C1=O (cyclo(I[dNMeA][Pip][dNMeF]P[dF]))
Result: 0.0

Query: Does the reported IC50 of the following molecule sit strictly below 200 nM? CC[C@H](C)[C@@H]1NC(=O)[C@@H](Cc2ccccc2)NC(=O)[C@@H]2CCCN2C(=O)[C@@H](C)N(C)C(=O)[C@@H]2CCCCN2C(=O)[C@H]2CCCCN2C1=O (cyclo(I[dPip][Pip][dNMeA]P[dF]))
Result: 0.0

Query: Does the reported IC50 of the following molecule sit strictly below 200 nM? CC[C@H](C)[C@@H]1NC(=O)[C@@H](Cc2ccccc2)NC(=O)[C@@H]2CCCN2C(=O)[C@@H](Cc2ccccc2)N(C)C(=O)[C@H](CCCCN)NC(=O)[C@H]2CCCCN2C1=O
Result: 1.0

Query: Does the reported IC50 of the following molecule sit strictly below 200 nM? CC[C@H](C)[C@@H]1NC(=O)[C@@H](Cc2ccccc2)NC(=O)[C@@H]2CCCN2C(=O)[C@@H](Cc2ccccc2)N(C)C(=O)[C@@H]2CCCN2C(=O)[C@H]2CCCCN2C1=O
Result: 0.0

Query: Does the reported IC50 of the following molecule sit strictly below 200 nM? CC[C@H](C)[C@@H]1NC(=O)[C@@H](Cc2ccccc2)NC(=O)[C@@H]2CCCN2C(=O)[C@@H](Cc2ccccc2)NC(=O)[C@@H]2CCCCN2C(=O)[C@H]2CCCCN2C1=O (cyclo(I[dPip][Pip][dF]P[dF]))
Result: 0.0

Query: Does the reported IC50 of the following molecule sit strictly below 200 nM? CC[C@H](C)[C@@H]1NC(=O)[C@@H](Cc2ccccc2)NC(=O)[C@H](C)N(C)C(=O)[C@@H](Cc2ccccc2)N(C)C(=O)[C@@H]2CCCCN2C(=O)[C@H]2CCCCN2C1=O (cyclo(I[dPip][Pip][dNMeF][NMeA][dF]))
Result: 0.0

Query: Does the reported IC50 of the following molecule sit strictly below 200 nM? CC[C@H](C)[C@@H]1NC(=O)[C@@H](Cc2c[nH]c3ccccc23)NC(=O)[C@@H]2CCCN2C(=O)[C@@H](Cc2ccccc2)N(C)C(=O)[C@@H]2CNCCN2C(=O)[C@H]2CCCCN2C1=O (cyclo(I[dPip][Pip(4-aza)][dNMeF]P[dW]))
Result: 1.0

Query: Does the reported IC50 of the following molecule sit strictly below 200 nM? CC[C@H](C)[C@@H]1NC(=O)[C@@H](Cc2ccc3ccccc3c2)NC(=O)[C@@H]2CCCN2C(=O)[C@@H](Cc2c[nH]cn2)NC(=O)[C@@H]2CCCCN2C(=O)[C@H]2CCCCN2C1=O (cyclo(I[dPip][Pip][dH]P[d2Nal]))
Result: 1.0

Query: Does the reported IC50 of the following molecule sit strictly below 200 nM? CC[C@H](C)[C@@H]1NC(=O)[C@@H](Cc2ccc3ccccc3c2)NC(=O)[C@@H]2CCCN2C(=O)[C@@H](Cc2ccccc2)N(C)C(=O)[C@H](CCCCN)NC(=O)[C@H]2CCCCN2C1=O (cyclo(I[dPip]K[dNMeF]P[d2Nal]))
Result: 1.0

Origin of measurements: ChEMBL document CHEMBL1125324
